Assay: decreased DLD-1 cellular survival, CellTiter-Glo luminescent readout, NPC compound collection, primary HTS (AID 1117346)
Details: DLD-1 viability, CellTiter-Glo luminescence; at 20 µM (top of the series)
attribute_measured: viability decrease (inhibition) (%)
Enter your answer as a number in %; do not include the unit.

Fill in: viability decrease (inhibition) of CC(C(=O)O)c1ccc(/C=C2\CCCCC2=O)cc1 (centres undefined) is ___
-23.7

Fill in: viability decrease (inhibition) of O=P(O)(O)C(Sc1ccc(Cl)cc1)P(=O)(O)O is ___
2

Fill in: viability decrease (inhibition) of NC(=O)NNc1ccccc1 is ___
7.45

Fill in: viability decrease (inhibition) of CCCCCC[C@@H](CCC)C(=O)O is ___
16.9
